Origin of the recorded values: patent US5616684A

measured.target: endothelin receptor A (ETA) (Sus scrofa)
Construct: A membrane fraction prepared from the porcine heart; from tissue; host or cells: porcine heart membrane fraction
Sequence (Q29010 21-427): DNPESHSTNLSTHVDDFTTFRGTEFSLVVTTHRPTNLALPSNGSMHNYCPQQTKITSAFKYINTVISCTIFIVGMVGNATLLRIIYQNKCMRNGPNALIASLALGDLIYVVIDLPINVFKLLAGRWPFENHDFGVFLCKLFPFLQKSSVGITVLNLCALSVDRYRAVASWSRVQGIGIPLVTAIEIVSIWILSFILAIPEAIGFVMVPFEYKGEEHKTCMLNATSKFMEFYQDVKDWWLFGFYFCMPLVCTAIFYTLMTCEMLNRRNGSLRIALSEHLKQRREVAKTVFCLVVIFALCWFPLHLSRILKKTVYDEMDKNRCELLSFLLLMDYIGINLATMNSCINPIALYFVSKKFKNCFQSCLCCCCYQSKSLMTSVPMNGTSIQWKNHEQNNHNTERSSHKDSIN
protocol.description: Assay of Affinity for Receptor (1): Binding Activity on ETA Receptor
Set-up: key: relative binding activity; reference cyclic pentapeptide = 1.0
measurement.context: specific activity, binding activity of cyclo[-D-Glu-Ala-D-aIle-Leu-D-Trp-] taken as 1.0; porcine heart membrane fraction, 125I-labeled endothelin-1, 25° C., 1 hour
Non-standard residues stand in square brackets, D forms with d. Residues, ends and D or L forms follow the SMILES beside them. 1Nal = N[C@@H](Cc1cccc2ccccc12)C(=O)O; d(aIle) = CC[C@H](C)[C@@H](N)C(=O)O; NMeF = CN[C@@H](Cc1ccccc1)C(=O)O
Below, each of the molecules is paired with its reported Binding Activity on ET Receptor (R. act.) ETA value.
API note: the answer field is a bare number with no unit suffix.

Worked examples, 4 molecules total:
{"molecule": "CC[C@H](C)[C@H]1NC(=O)[C@H](C)NC(=O)[C@@H](CCC(=O)O)NC(=O)[C@@H](Cc2c[nH]c3ccccc23)NC(=O)[C@H](CC(C)C)NC1=O [cyclo[-D-Glu-Ala-D-aIle-Leu-D-Trp-], reference compound] (cyclo(A[d(aIle)]L[dW][dE]))", "measured.target": "endothelin receptor A (ETA) (Sus scrofa)", "reported.value": 1.0}
{"molecule": "CC(C)C[C@@H]1NC(=O)[C@@H](CC(C)C)NC(=O)[C@H](CCC(=O)O)NC(=O)[C@H](Cc2c[nH]c3ccccc23)NC(=O)[C@@H](CC(=O)O)NC(=O)[C@@H](Cc2c[nH]c3ccccc23)NC1=O [Example 34] (cyclo(E[dL]L[dW][dD]W))", "measured.target": "endothelin receptor A (ETA) (Sus scrofa)", "reported.value": 20}
{"molecule": "CC(C)C[C@@H]1NC(=O)[C@@H](CC(C)C)NC(=O)[C@H](CC(=O)O)NC(=O)[C@H](CC(C)C)NC(=O)[C@@H](CC(=O)O)NC(=O)[C@@H](Cc2c[nH]c3ccccc23)NC1=O [Example 18] (cyclo(D[dL]L[dW][dD]L))", "measured.target": "endothelin receptor A (ETA) (Sus scrofa)", "reported.value": 13}
{"molecule": "CC(C)C[C@@H]1NC(=O)[C@@H](CC(C)C)NC(=O)[C@H](CC(=O)O)NC(=O)[C@H](Cc2c[nH]c3ccccc23)NC(=O)[C@@H](CC(=O)O)NC(=O)[C@@H](Cc2cn(C)c3ccccc23)NC1=O [Example 95]", "measured.target": "endothelin receptor A (ETA) (Sus scrofa)", "reported.value": 110}

Endpoint output: Binding Activity on ET Receptor (R. act.) ETA of CC(C)C[C@@H]1NC(=O)[C@@H](CC(C)C)NC(=O)[C@H](CC(=O)O)NC(=O)[C@H](Cc2ccccc2)N(C)C(=O)[C@@H](CC(=O)O)NC(=O)[C@@H](Cc2c[nH]c3ccccc23)NC1=O [Example 48] (cyclo(D[dL]L[dW][dD][NMeF])) . Value?
2.7

Also, CC(C)C[C@@H]1NC(=O)[C@@H](CC(C)C)NC(=O)[C@H](CC(=O)O)NC(=O)[C@H](Cc2cccc3ccccc23)NC(=O)[C@@H](CC(=O)O)NC(=O)[C@@H](Cc2c[nH]c3ccccc23)NC1=O [Example 23] (cyclo([1Nal]D[dL]L[dW][dD])) please.
8.3

Try the molecule CC(C)C[C@@H]1NC(=O)[C@@H](CC(C)C)NC(=O)[C@H](CC(=O)O)NC(=O)[C@@H]2CCCN2C(=O)[C@@H](CC(=O)O)NC(=O)[C@@H](Cc2c[nH]c3ccccc23)NC1=O [Example 9, cyclo[-D-Asp-Pro-Asp-D-Leu-Leu-D-Trp-]] (cyclo(D[dL]L[dW][dD]P))
56
